# Target desc: T1, rhNR10 (recombinant human NR10) (human, UniProt Q8NI17 20-519, limits assumed)
# T1 construct: also called IL-31 receptor; IL31RA
# T1 sequence: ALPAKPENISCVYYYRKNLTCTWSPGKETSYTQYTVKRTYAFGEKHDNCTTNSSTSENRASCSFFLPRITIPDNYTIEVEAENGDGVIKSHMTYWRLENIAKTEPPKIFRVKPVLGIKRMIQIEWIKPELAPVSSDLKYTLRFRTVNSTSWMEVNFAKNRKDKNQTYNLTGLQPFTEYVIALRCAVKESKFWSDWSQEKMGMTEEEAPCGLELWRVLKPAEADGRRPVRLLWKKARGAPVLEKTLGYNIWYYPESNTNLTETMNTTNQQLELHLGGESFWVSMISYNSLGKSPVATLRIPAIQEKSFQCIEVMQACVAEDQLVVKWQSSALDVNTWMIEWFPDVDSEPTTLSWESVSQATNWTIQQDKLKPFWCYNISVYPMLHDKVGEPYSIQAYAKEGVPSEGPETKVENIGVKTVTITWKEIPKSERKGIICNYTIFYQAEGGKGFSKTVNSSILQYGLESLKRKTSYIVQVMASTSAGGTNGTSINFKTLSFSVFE
# Assay method text: SPR, Biacore T100; antibody captured on Protein A, rhNR10 as analyte
Attribute measured: koff (s⁻¹)
Your answer is read as s⁻¹, so omit the unit and give the number.

As a guide, the following entries are already answered.
[[record]]
binder = "Ha101L0 (Ha101-SKSC / L0) (antibody, V domains shown) VH: QVQLVQSGAEVKKPGASVKVSCKASGYTFTGYVMNWVRQAPGQGLEWMGLINPYNGGTSYNQKFKGRVTITADESTSTAYMELSSLRSEDTAVYYCARDGYDDGPYTMDYWGQGTLVTVSS VL: DIQMTQSPSSLSASVGDRVTITCRTSENIYSFLAWYQQKPGKAPKLLIYNAKTLAKGVPSRFSGSGSGTDFTLTISSLQPEDFATYYCQHHYESPLTFGGGTKVEIKR"
attribute_measured = "koff"
numeric_readout = 0.00031

[[record]]
binder = "Ha204L0 (Ha204-SKSC / L0) (antibody, V domains shown) VH: QVQLVQSGAEVKKPGASVKVSCKASGYTFTGYIMNWVRQAPGQGLEWMGLINPYNGGTDYNQKFKGRVTITADESTSTAYMELSSLRSEDTAVYYCARDGYDDGPYTMDYWGQGTLVTVSS VL: DIQMTQSPSSLSASVGDRVTITCRTSENIYSFLAWYQQKPGKAPKLLIYNAKTLAKGVPSRFSGSGSGTDFTLTISSLQPEDFATYYCQHHYESPLTFGGGTKVEIKR"
attribute_measured = "koff"
numeric_readout = 0.00048

[[record]]
binder = "H0La134 (H0-SKSC / La134) (antibody, V domains shown) VH: QVQLVQSGAEVKKPGASVKVSCKASGYTFTGYIMNWVRQAPGQGLEWMGLINPYNGGTSYNQKFKGRVTITADESTSTAYMELSSLRSEDTAVYYCARDGYDDGPYTMDYWGQGTLVTVSS VL: DIQMTQSPSSLSASVGDRVTITCRTSENIYRFLAWYQQKPGKAPKLLIYNAKTLAKGVPSRFSGSGSGTDFTLTISSLQPEDFATYYCQHHYESPLTFGGGTKVEIKR"
attribute_measured = "koff"
numeric_readout = 0.00044

[[record]]
binder = "H0La303 (H0-SKSC / La303) (antibody, V domains shown, also called Ls303) VH: QVQLVQSGAEVKKPGASVKVSCKASGYTFTGYIMNWVRQAPGQGLEWMGLINPYNGGTSYNQKFKGRVTITADESTSTAYMELSSLRSEDTAVYYCARDGYDDGPYTMDYWGQGTLVTVSS VL: DIQMTQSPSSLSASVGDRVTITCRTSENIYSFLAWYQQKPGKAPKLLIYNAKTLAKGVPSRFSGSGSGTDFTLTISSLQPEDFATYYCQHHYDSPLTFGGGTKVEIKR"
attribute_measured = "koff"
numeric_readout = 0.00046


Proceeding to the next binder to report its koff.
Requested field: koff. Item: Ha219L0 (Ha219-SKSC / L0) (antibody, V domains shown) VH: QVQLVQSGAEVKKPGASVKVSCKASGYTFTGYIMNWVRQAPGQGLEWMGLINPYNGGTSYNPKFKGRVTITADESTSTAYMELSSLRSEDTAVYYCARDGYDDGPYTMDYWGQGTLVTVSS VL: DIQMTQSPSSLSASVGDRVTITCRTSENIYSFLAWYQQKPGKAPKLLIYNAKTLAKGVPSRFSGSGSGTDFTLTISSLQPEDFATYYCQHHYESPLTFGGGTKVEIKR
0.00096
